Reported dose excreted values for the following compounds.
assay comment: Biliary excretion when administered intravenously at a dose of 5 mg/kg in rats
Format: ADME, organism-based
Set-up: dose 5 mg/kg, route intravenous
condition summary: rat, bile, iv, read-out: Biliary excretion

| compound | unit of measure | dose excreted |
| --- | --- | --- |
| CCSCCNC(=O)[C@H](Cc1c[nH]c2ccccc12)NC(=O)[C@@H](CC(=O)NO)CC(C)C | % | 46 |
| CC(C)C[C@H](CC(=O)NO)C(=O)N[C@@H](Cc1c[nH]c2ccccc12)C(=O)NCCCCC(=O)O | % | 108 |
| CC(C)C[C@H](CC(=O)NO)C(=O)N[C@@H](Cc1c[nH]c2ccccc12)C(=O)NCCS(N)(=O)=O | % | 61.3 |
| COCCNC(=O)[C@H](Cc1c[nH]c2ccccc12)NC(=O)[C@@H](CC(=O)NO)CC(C)C | % | 59.2 |
| CC(C)C[C@H](CC(=O)NO)C(=O)N[C@@H](Cc1c[nH]c2ccccc12)C(=O)NCCCN(C)C | % | 18.1 |
| CC(C)C[C@H](CC(=O)NO)C(=O)N[C@@H](Cc1c[nH]c2ccccc12)C(=O)NCC[S+](C)[O-] (stereo partly specified) | % | 44.8 |
| CSCCNC(=O)[C@H](Cc1c[nH]c2ccccc12)NC(=O)[C@@H](CC(=O)NO)CC(C)C | % | 27.3 |
| CNC(=O)[C@H](Cc1ccc(OC)cc1)NC(=O)[C@@H](CC(=O)NO)CC(C)C | % | 84.1 |
| CC(C)C[C@H](CC(=O)NO)C(=O)N[C@@H](Cc1c[nH]c2ccccc12)C(=O)NCCS(C)(=O)=O | % | 67.2 |
| COc1ccc(C(=O)CCCCNC(=O)[C@H](Cc2c[nH]c3ccccc23)NC(=O)[C@@H](CC(=O)NO)CC(C)C)cc1 | % | 74.5 |
| CC(C)C[C@H](CC(=O)NO)C(=O)N[C@@H](Cc1c[nH]c2ccccc12)C(=O)NCCSc1ccccc1 | % | 43.9 |
| CC(C)C[C@H](CC(=O)NO)C(=O)N[C@@H](Cc1c[nH]c2ccccc12)C(=O)NCCCCOCc1ccccc1 | % | 99.9 |
| CC(C)C[C@H](CC(=O)NO)C(=O)N[C@@H](Cc1c[nH]c2ccccc12)C(=O)NCCSCCN1CCOCC1 | % | 30.8 |
| CC(C)C[C@H](CC(=O)NO)C(=O)N[C@@H](Cc1c[nH]c2ccccc12)C(=O)NCCN(C)C | % | 18.9 |
| CSCCCNC(=O)[C@H](Cc1c[nH]c2ccccc12)NC(=O)[C@@H](CC(=O)NO)CC(C)C | % | 53 |
| CC(C)C[C@H](CC(=O)NO)C(=O)N[C@@H](Cc1c[nH]c2ccccc12)C(=O)NCCSCCN(C)C | % | 60.8 |
